Reference source for all entries: PubChem BioAssay (NCI)

Can you tell me growth inhibition for the items I'm about to list?
- assayExplanation: NCI Yeast Anticancer Drug Screen. Data for the sgs1 mgt1 strain (AID 161);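 further: 0% = growth of cultures given vehicle only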
- testParameters: S. cerevisiae sgs1 mgt1 strain, at 50.0 µM, active compounds read high
About 79,000 compounds went through this panel and 15% of them were active in at least one assay; those are over-represented in the sample as a whole. The source made the active and inactive calls. No stated cut-off is given here; in the data, active means growth inhibition above about 70%; inactive means the rest.

Here is how some compounds turned out for growth inhibition.
compound | growth inhibition
Cc1cc(Cl)ccc1NC(=O)/C(Cl)=C1/Sc2ccccc2NC1=O | 68.5% (inactive)
Cc1cc(OCc2ccccc2)ccc1[N+](=O)[O-] | 74.6% (active)
COc1ccc(/C(C#N)=C/c2ccc(OC)c(OC)c2)cc1 | 46.8% (inactive)

Consider the following items and state reported growth inhibition for each.
1. CC(=O)Oc1ccc(N2C(=O)C3c4[nH]c5ccccc5c4C4CCC(C(C)(C)C)CC4C3C2=O)cc1 (stereo not given)
2. CCOC(=O)[C@]1(Br)CC[C@@]1(Br)C(=O)OCC
3. CCC(C)(c1ccc(O)c(C)c1)c1ccc(O)c(C)c1
4. O=C(O)c1[nH]c(=O)c2ccccc2c1Nc1ccccc1
5. OCCN(CCO)c1ccc2c(c1)Cc1ccccc1-2
6. COC(=O)c1oc([N+](=O)[O-])c(Cl)c1Cl

["98.5% (active)", "91.8% (active)", "93.8% (active)", "10.3% (inactive)", "52.2% (inactive)", "99% (active)"]

List growth inhibition for every entry below, keeping the order given.
1. O=C1c2c(O)cccc2-c2nn(CCNCCO)c3ccc(NCCNCCO)c1c23
2. O/N=C/C1c2ccccc2-c2ccccc21
3. COc1ccc(N)c2c1C(=O)c1ccccc1C2=O

7% (inactive)
50.8% (inactive)
62.5% (inactive)

---

Record form. Attribute: growth inhibition. Fill in for each entry.
- assayExplanation: NCI Yeast Anticancer Drug Screen. Data for the rad52 strain (AID 147);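 further: 0% = growth of vehicle-treated control cultures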
- testParameters: S. cerevisiae rad52 mutant growth inhibition; at 33.0 µM; active compounds read high
About 79,000 compounds went through this panel and 15% of them were active in at least one assay; those are over-represented in the sample as a whole. Calls of active or inactive are those of the source. No stated cut-off is given here; in the data, active means growth inhibition above about 70%; inactive means the rest.

compound | result
CCCCC(CC)C(=O)Oc1ccc(C(=O)c2ccccc2)c(O)c1 (stereo unspecified) | 61% (inactive)
O=C(/C=C\c1ccc([N+](=O)[O-])o1)Nc1ccc(Cl)cc1 | 98% (active)
Cc1cc(O)c2c(c1O)C(=O)C13C(=C2O)C(=O)C2C(O)C1C1C(O)C3C(=O)C3=C(O)c4c(O)cc(C)c(O)c4C(=O)C321 (stereo unspecified) | 89% (active)
NC(=O)N1c2ccccc2C=Cc2ccccc21 | -49% (inactive)
On1cnc(=S)c2[nH]cnc21 | -26% (inactive)
CC(=O)OCC1OC(O[C@H]2C=C[C@@H](C(=O)OCc3ccccc3)n3c(=O)n(-c4ccccc4)c(=O)n32)C(OC(C)=O)C(OC(C)=O)C1OC(C)=O (stereo partly specified) | 63% (inactive)

Kindly give each listed record's growth inhibition.
1. Nc1ccc2c(=S)c3ccccc3[nH]c2c1
2. COC(=O)c1n[nH]c(C)c1N=NN(C)CCC#N
3. C/C=C/[P+](c1ccccc1)(c1ccccc1)c1ccccc1
4. CC(=O)O[C@H]1C(=O)[C@@]2(C)[C@H]([C@H](OC(=O)c3ccccc3)[C@]3(O)C[C@H](OC(=O)[C@H](O)[C@@H](NC(=O)c4ccccc4)c4ccccc4)C(C)=C1C3(C)C)[C@]1(OC(C)=O)CO[C@@H]1C[C@@H]2O
5. Cc1ccccc1NC(=O)Cc1csc(N/N=C2\NC(=O)/C(=C/c3cccc([N+](=O)[O-])c3)S2)n1
6. [N-]=[N+]=NC(c1ccccc1)(c1ccccc1)c1ccccc1

32% (inactive)
98% (active)
83% (active)
1% (inactive)
24% (inactive)
29% (inactive)

Can you give me growth inhibition for all of these, one by one?
1. Clc1cc(Cc2ccc(N=C/C=C/c3ccccc3)c(Cl)c2)ccc1N=C/C=C\c1ccccc1
2. CC(=O)N1C(=O)/C(=C\C(=O)c2ccc(Cl)cc2)c2ccccc21
3. CN(N=O)c1ccc(/C=C/c2ccnc3ccccc23)cc1
4. c1ccc(N2N=C3N(c4ccccc4)C2N3c2ccccc2)cc1

1. 9% (inactive)
2. 93% (active)
3. 85% (active)
4. 57% (inactive)

Each compound below has a reported value. Please supply its growth inhibition.
1. COc1ccc(S(=O)(=O)N/N=C\c2cc([N+](=O)[O-])cc(I)c2O)c(OC)c1OC
2. CC1(C)C(C=O)=CCC1CC(N)=O (stereo unspecified)
3. NNC(=S)Nc1cccc(Cl)c1

["42% (inactive)", "7% (inactive)", "6% (inactive)"]

Value sought for every listed compound: growth inhibition.
1. O=C(O)c1ccccc1.[Ag]
2. O=[N+]([O-])c1cccc2nc3ccccc3c(NCCc3cccc[n+]3[O-])c12

98% (active)
92% (active)

---

- assayExplanation: NCI Yeast Anticancer Drug Screen. Data for the CLN2oe strain (AID 163);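 further: 0% = growth of vehicle-only control cultures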
- testParameters: S. cerevisiae CLN2oe strain, at 3.7 µM, active compounds read high
This is part of a sample that, as a whole, favours compounds with a hit. Of some 79,000 tested, about 15% had one in any assay.
Would you kindly list growth inhibition for each of these compounds?
Numbers only, in %.

Some compounds with recorded growth inhibition:
compound | growth inhibition [%]
CCN(CC)N=Nc1c(C(N)=O)n[nH]c1C | 1
O=[N+]([O-])c1cccc2nc3ccccc3c(NCCc3cccc[n+]3[O-])c12 | -12
O=C1C=CC(=O)N1c1ccc(N2C(=O)C=CC2=O)cc1 | 59
Cc1ccc(S(=O)(=O)Nc2ccc3c(c2)C(O)c2ccccc2-3)cc1 (centres undefined) | -10
CC(=O)N1C(=O)/C(=C\C(=O)c2ccc([N+](=O)[O-])cc2)c2ccccc21 | 4

Lab note: each compound below needs its growth inhibition filled in.
1. NC(=O)N1c2ccccc2C=Cc2ccccc21
2. CCOC(=O)c1csc(Br)n1
3. Cc1cccc(/C=N\NC(=S)N2CCCCC2)n1
4. CC(C)c1cccc(O)c(=O)c1
5. S=c1nc(Cl)cc2[nH]c(Cl)cn12

1. 19
2. -5
3. 85
4. 4
5. -1

List the reported growth inhibition of each compound below.
1. OC(CN1CCCCC1)c1cc(Cl)c(Cl)c(Cl)c1 (centres undefined)
2. C/C=C/[P+](c1ccccc1)(c1ccccc1)c1ccccc1

1: 8; 2: 13

For each of the compounds below, state growth inhibition.
1. NP1(Oc2ccc(F)cc2)=NP(N)(Oc2ccc(F)cc2)=NP(Oc2ccc(F)cc2)(Oc2ccc(F)cc2)=N1 (centres undefined)
2. COc1ccc(N)c2c1C(=O)c1ccccc1C2=O
3. CC(=O)N1C(=O)/C(=C\C(=O)c2ccc(Cl)cc2)c2ccccc21
4. CC[C@@]1(OC(=O)CCC(=O)O)C(=O)OCc2c1cc1n(c2=O)Cc2cc3ccccc3nc2-1
5. O=C1C=CC(=Nc2ccccc2)c2ccccc21

[-3, 6, -14, 21, -4]

Provide reported growth inhibition for each item, in the same order as listed.
1. O=C(NC(=S)Nc1ccccn1)c1ccccc1
2. CCCCCCCCCCCc1nc(N)n[nH]1
3. NC(N)=N/N=C/c1cc(Cl)cc(Cl)c1O
4. CCC(NC(C)c1ccccc1)C(=O)c1ccc(OCc2ccccc2)c(OCc2ccccc2)c1 (centres undefined)
5. CCCCCCSc1nc(COC(=O)NC)c(COC(=O)NC)n1C
6. COc1ccc(S(=O)(=O)N/N=C\c2cc([N+](=O)[O-])cc(I)c2O)c(OC)c1OC
7. CCN(CC)CC(O)C1CCC(c2ccccc2)CC1 (centres undefined)

[-15, -6, 23, -3, -5, -10, 10]

---

- assayExplanation: NCI Yeast Anticancer Drug Screen. Data for the mlh1 strain (AID 171);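 further: 0% = growth of vehicle-treated control cultures of the same strain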
- testParameters: S. cerevisiae mlh1 strain growth inhibition; at 11.0 µM; active compounds read high
- Description: Growth inhibition of yeast strains with defined genetic alterations is measured as a screen for potential anti-cancer activity. Selected strains with alterations in DNA damage repair or cell cycle control were exposed to compounds and growth inhibition was measured relative to vehicle treated controls. The strain used in this assay is mlh1
This is part of a sample that, as a whole, favours compounds with a hit. Of some 79,000 tested, about 15% had one in any assay.
resultType: growth inhibition (%)
One number for each entry, in %.

# count of solved cases: 3
molecule | growth inhibition, %
CCOC(=O)C1=C(C)NC(C)=C(C(=O)OCC)C1c1ccc(C)cc1 | 55
CCCCCCSc1nc(COC(=O)NC)c(COC(=O)NC)n1C | -2
Cc1cc(O)c2c(c1)C(=O)C=C(Br)C2=O | 71

Batch: growth inhibition for all items listed.
1. C(=N/NC1=NCCN1)/c1c2ccccc2c(/C=N\NC2=NCCN2)c2ccccc12
2. O=[N+]([O-])c1cc(S(=O)(=O)Nc2ccccc2)ccc1Cl
3. O=c1ccc(N=Nc2ccccc2)ccc1O
4. COc1cc(N(C)C)ccc1/C=C\c1ccnc2ccccc12

21
13
98
3

// for each molecule in input: emit growth inhibition
1. Cc1ccc(S(=O)(=O)Nc2ccc3c(c2)C(O)c2ccccc2-3)cc1 (configuration not stated)
2. COC(=O)c1oc([N+](=O)[O-])c(Cl)c1Cl
3. Cc1cc(C)c(N2C(=O)CC(Sc3ccccc3N)C2=O)c(C)c1 (configuration not stated)
4. CC(=O)[O-].O=C([CH-]C(=O)c1ccccc1)c1ccccc1.O=C([CH-]C(=O)c1ccccc1)c1ccccc1.[Sm+3]
5. C/C(=N\NC(=S)NC1CCCC1)c1ccccn1
6. COc1ccc2oc(-c3ccc(Cl)cc3)c(N3CCN(C)CC3)c2c1

[2, 78, -27, 70, 98, 90]

I would be grateful if you could provide growth inhibition for each of the following entries.
1. [Pt].c1ccc(P(CCP(c2ccccc2)c2ccccc2)CCP(c2ccccc2)c2ccccc2)cc1
2. NP1(Oc2ccc(F)cc2)=NP(N)(Oc2ccc(F)cc2)=NP(Oc2ccc(F)cc2)(Oc2ccc(F)cc2)=N1 (configuration not stated)
3. CC(=O)[C@]1(O)Cc2c(O)c3c(c(O)c2[C@@H](OC2CC(N)C(O)C(C)O2)C1)C(=O)c1c(OCc2ccccc2)cccc1C3=O (some centres not stated)
4. CCOC(=O)c1csc(Br)n1

1. -1
2. 1
3. 6
4. 0

// for each molecule in input: emit growth inhibition
1. Cc1ccc(CNc2ccc(Br)cc2)cc1
2. O=C(/C=N/O)Nc1cc(Cl)c(Cl)cc1Cl
3. CCN(CC)CC(O)c1cc(-c2ccc(Cl)cc2)nc2c(-c3ccccc3)cccc12 (configuration not stated)
4. O=C(/C=C\c1ccc([N+](=O)[O-])o1)Nc1ccc(Cl)cc1
5. O=c1[nH]c2ccccc2c2nc3ccccc3n12

1. -21
2. -9
3. 99
4. 94
5. -14
